# study.target: signal transducer and activator of transcription 3 (STAT3) (Homo sapiens)
# Sequence (P40763 2-770): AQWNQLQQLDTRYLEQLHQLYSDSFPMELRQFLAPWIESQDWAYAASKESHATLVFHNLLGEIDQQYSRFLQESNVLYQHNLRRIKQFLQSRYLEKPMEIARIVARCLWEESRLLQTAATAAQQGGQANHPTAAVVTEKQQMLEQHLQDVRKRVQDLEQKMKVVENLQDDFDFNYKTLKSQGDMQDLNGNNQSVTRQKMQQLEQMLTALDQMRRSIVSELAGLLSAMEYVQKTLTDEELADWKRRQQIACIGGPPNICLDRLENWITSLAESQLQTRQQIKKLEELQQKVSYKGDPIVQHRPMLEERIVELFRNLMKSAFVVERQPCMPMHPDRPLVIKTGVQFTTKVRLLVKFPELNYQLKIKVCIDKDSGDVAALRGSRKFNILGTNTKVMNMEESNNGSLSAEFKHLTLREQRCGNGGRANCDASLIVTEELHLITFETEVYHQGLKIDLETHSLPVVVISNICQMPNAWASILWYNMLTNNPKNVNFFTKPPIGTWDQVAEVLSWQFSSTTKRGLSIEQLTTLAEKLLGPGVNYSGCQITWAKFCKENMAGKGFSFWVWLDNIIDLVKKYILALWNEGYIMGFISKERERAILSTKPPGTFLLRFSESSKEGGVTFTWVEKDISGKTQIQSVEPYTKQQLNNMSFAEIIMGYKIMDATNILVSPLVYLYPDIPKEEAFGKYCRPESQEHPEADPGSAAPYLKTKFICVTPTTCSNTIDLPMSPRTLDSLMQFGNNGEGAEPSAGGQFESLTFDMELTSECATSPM
pKd: −log10 of the molar value.

compound | pKd
O=c1c(O[C@@H]2O[C@H](CO)[C@@H](O)[C@H](O)[C@H]2O)c(-c2ccc(O)c(O)c2)oc2cc(O)cc(O)c12 | 5.54
